- Assay Explanation: Hydrolytic half-life of AB23A in human liver microsomes
- Type: in vitro ADME
- Stated Conditions: human liver microsomes (HLMs), HLMs 0.1 mg/mL, PBS pH 7.4, read-out: t1/2 (hydrolytic/metabolic half-life)
Measurement Type: half-life (min)
State just the number; it will be interpreted in min.

Sample CC(=O)O[C@H](C[C@@H](C)C1=C2C[C@H](O)C3[C@@]4(C)CCC(=O)C(C)(C)C4CC[C@]3(C)[C@@]2(C)CC1)[C@H]1OC1(C)C (stereo partly shown) [AB23A, Alisol B 23-acetate] — what was its half-life? 41

* * *

- Assay Explanation: Hydrolytic half-life of AB23A in human plasma
- Type: in vitro ADME
- Stated Conditions: human plasma (25% diluted); 25% dilution human plasma, PBS pH 7.4; read-out: t1/2 (hydrolytic/metabolic half-life)
Measurement Type: half-life

What value of half-life has been reported for the following molecule? CC(=O)O[C@H](C[C@@H](C)C1=C2C[C@H](O)C3[C@@]4(C)CCC(=O)C(C)(C)C4CC[C@]3(C)[C@@]2(C)CC1)[C@H]1OC1(C)C (stereo partly shown) [AB23A, Alisol B 23-acetate] 115 min

* * *

- Assay Explanation: Hydrolytic half-life of AB23A in pig liver microsomes
- Assay type: in vitro ADME
- Stated Conditions: pig liver microsomes (PLMs), pH 7.4, PLMs 0.10 mg/mL, read-out: T1/2 (hydrolytic half-life)
Measurement Type: half-life (min)
Output spec: scalar in min, unitless text.

Quick check: half-life of CC(=O)O[C@H](C[C@@H](C)C1=C2C[C@H](O)C3[C@@]4(C)CCC(=O)C(C)(C)C4CC[C@]3(C)[C@@]2(C)CC1)[C@H]1OC1(C)C (stereo partly shown) [AB23A, Alisol B 23-acetate] ? 9.5

* * *

- System: AB23A hydrolysis in HLMs
- Assay Explanation: Chemical inhibition assay of AB23A hydrolysis in HLMs
- Type: biochemical, human
- Stated Conditions: HLMs 0.1 mg/mL, AB23A 20 μM, 1 h; BNPP 50 μM, LPA 100 μM, GA 100 μM, boceprevir 20 μM, EDTA 20 μM

| Compound | Target System | Effect on AB23A hydrolysis in HLMs |
| --- | --- | --- |
| CN(C)C(=O)C(CCN1CCC(O)(c2ccc(Cl)cc2)CC1)(c1ccccc1)c1ccccc1 [LPA, Loperamide] | AB23A hydrolysis in HLMs | slightly blocked |
| O=C(O)CN(CCN(CC(=O)O)CC(=O)O)CC(=O)O [EDTA, Ethylenediaminetetraacetic acid] | AB23A hydrolysis in HLMs | negligible effects |
| COc1ccc2c3c1O[C@H]1C[C@@H](O)C=C[C@@]31CCN(C)C2 [GA, galanthamine] | AB23A hydrolysis in HLMs | slightly blocked |
| CC(C)(C)NC(=O)N[C@H](C(=O)N1C[C@H]2[C@@H]([C@H]1C(=O)NC(CC1CCC1)C(=O)C(N)=O)C2(C)C)C(C)(C)C (some centres unmarked) [boceprevir, Boceprevir] | AB23A hydrolysis in HLMs | negligible effects |

* * *

- Assay Explanation: Hydrolytic half-life of AB23A in mouse liver microsomes
- Format: in vitro ADME
- Stated Conditions: mouse liver microsomes (MLMs), pH 7.4, MLMs 0.10 mg/mL, read-out: T1/2 (hydrolytic half-life)
Measurement Type: half-life

Requested field: half-life. Item: CC(=O)O[C@H](C[C@@H](C)C1=C2C[C@H](O)C3[C@@]4(C)CCC(=O)C(C)(C)C4CC[C@]3(C)[C@@]2(C)CC1)[C@H]1OC1(C)C (stereo partly shown) [AB23A, Alisol B 23-acetate] 2.3 min

* * *

- Assay Explanation: Hydrolytic half-life of AB23A in human intestine microsomes
- Assay type: in vitro ADME
- Stated Conditions: human intestine microsomes (HIMs), HIMs 0.1 mg/mL, PBS pH 7.4, read-out: t1/2 (hydrolytic/metabolic half-life)
Measurement Type: half-life (h)
The answer is to be given in h; state only the numeric part.

Give the measured half-life of CC(=O)O[C@H](C[C@@H](C)C1=C2C[C@H](O)C3[C@@]4(C)CCC(=O)C(C)(C)C4CC[C@]3(C)[C@@]2(C)CC1)[C@H]1OC1(C)C (stereo partly shown) [AB23A, Alisol B 23-acetate] . 1.13
